B1: ZBTB22 (parent)
chain: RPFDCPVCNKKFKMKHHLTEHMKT

# Variants of: B1
# TEST_PROTOCOL: protein stability index of a GFP-peptide fusion (GPS, HEK-293T) (PSI 1-6); higher = more stable;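 note: lentivirally expressed fusions sorted by FACS into six bins by GFP to DsRed ratio, PSI derived from sequencing read proportions per bin multiplied by bin number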
# CONDITION_LABEL: c terminus: a fixed tail appended
ENDPOINT_NAME: protein stability index
When you answer, write just the number.

C5T 3.71
F12A 2.44
E20S 1.93
K23V 2.37

Lookup: Sample C5Q — what was its protein stability index?
Found: 2.94

Lookup: Sample R1I — what was its protein stability index?
Found: 2.87

Lookup: Sample P2C — what was its protein stability index?
Found: 2.19
